From: patent US8133887B2

biological target: human CB1 receptor (Homo sapiens, UniProt P21554)
Sequence (P21554 whole entry): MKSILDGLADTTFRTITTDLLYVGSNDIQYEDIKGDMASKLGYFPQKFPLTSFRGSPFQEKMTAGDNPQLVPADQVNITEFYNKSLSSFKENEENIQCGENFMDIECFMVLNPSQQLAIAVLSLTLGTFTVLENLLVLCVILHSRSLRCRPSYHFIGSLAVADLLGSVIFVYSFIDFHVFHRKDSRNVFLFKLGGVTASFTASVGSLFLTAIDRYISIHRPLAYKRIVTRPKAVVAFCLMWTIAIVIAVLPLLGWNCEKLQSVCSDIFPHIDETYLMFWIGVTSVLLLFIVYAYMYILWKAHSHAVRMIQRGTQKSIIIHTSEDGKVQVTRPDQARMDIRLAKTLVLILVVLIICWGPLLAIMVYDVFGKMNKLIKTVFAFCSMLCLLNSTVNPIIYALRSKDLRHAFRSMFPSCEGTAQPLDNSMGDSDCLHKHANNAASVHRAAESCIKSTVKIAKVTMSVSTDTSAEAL
PARAMETER MEASURED: IC50
Value and unit, in that order.

Dear colleague, please send me the reported IC50 for CCCCCc1cc(O)c2c(c1)OC(F)(F)C1CCCCC21 (stereo not shown) [Compound Ia] when you can. 2200 nM
